- Test system: HepG2 Srxn1-GFP reporter cells (+30 nM CDDO-Me)
- experimentDescription: Srxn1-GFP intensity median modified Z-score relative to plate median; higher = stronger NRF2 / oxidative stress reporter activation, active = hit call of the paper
- testContext: 10 µM; exposure time: 24h
In all, about 2,300 compounds went through this assay and about 330 (14%) showed activity. The list is a sample of the results.
Listed here: items and their measured Srxn1-GFP intensity median modified Z-score.
reportedMetric: Srxn1-GFP intensity median modified Z-score

compound: O=C1OCCc2oc(O)cc21
observed: 33
--
compound: CNCCCN1c2ccccc2Sc2ccccc21
observed: 2.13
--
compound: C[C@H]1[C@H](OC(=O)CCC(=O)O)O[C@@H]2O[C@]3(C)CC[C@H]4[C@H](C)CC[C@@H]1[C@@]24OO3
observed: 11
--
compound: Cn1cc(O)[nH]c1=N
observed: -0.153
--
compound: CC(=O)C1CCC2C3CC=C4C[C@@H](OC(=O)CCC(=O)O)CC[C@]4(C)C3CC[C@]12C (some centres undefined)
observed: 1.01
--
compound: C=CC[S+]([O-])CC(N)C(=O)O (centres undefined)
observed: -0.228
--
compound: C[C@@H]1CC[C@H]2[C@@H](C)C(O)O[C@@H]3O[C@]4(C)CC[C@@H]1[C@]32OO4 (some centres undefined)
observed: 3.33
--
compound: COCCn1c(SCC(=O)N(C)Cc2ccc(Cl)s2)nc2cc(Cl)ccc21
observed: 0.575
--
compound: Cc1cc(=O)cc(O)o1
observed: 0.226
